Reported values of % change of HSV-1 GFP signal for individual entries
- System: HSV-1 K26-GFP infected primary human skin cells
- experiment description: % change of HSV-1 GFP signal vs untreated infected cells; higher = less antiviral inhibition
- experimental context: 0.2469 µM; cell type: primary keratinocytes; donor: 5; time (h post infection): 20
Phrase the answer as number then unit, nothing more needed.

>>> measured_value("Nc1ccn([C@@H]2O[C@H](CO)[C@@H](O)C2(F)F)c(=O)n1")
"-73.3%"
>>> measured_value("Cc1cccc(C)c1N(CC(=O)Nc1ccc(-c2ncon2)cc1)C(=O)C1CCS(=O)(=O)CC1")
"-49.2%"
>>> measured_value("O=C(/C=C\\n1cnc(-c2cc(C(F)(F)F)cc(C(F)(F)F)c2)n1)NNc1ccccn1 [Verdinexor]")
"3.84%"

Now, please, on to the next compound.
Lab entry: HSV-1 K26-GFP infected primary human skin cells assay, compound CC(C)c1cnn2c(NCc3ccccc3-n3cccn3)nc(OC3CCCNC3)nc12 (centres undefined) , % change of HSV-1 GFP signal = -10%
